Source listed as the supplement of paper PMC11061612.

Test system: OCI-M1 (Acute Myeloid Leukemia)
assay.details: combination Emax (second highest fraction inhibited in the dose matrix, 72 h); higher = more inhibition; extreme values may be limits of the assay
quantity.measured: combination Emax
One number for each entry.

{"compound": "NC1(C(=O)N[C@@H](CCO)c2ccc(Cl)cc2)CCN(c2ncnc3[nH]ccc23)CC1 [Capivasertib] + CC(=O)c1c(C)c2cnc(Nc3ccc(N4CCNCC4)cn3)nc2n(C2CCCC2)c1=O [Palbociclib] (first compound max 10 µM, 7x7, partner max 10 µM)", "combination Emax": 0.61}
{"compound": "CC1(C)CCC(CN2CCN(c3ccc(C(=O)NS(=O)(=O)c4ccc(NCC5CCOCC5)c([N+](=O)[O-])c4)c(Oc4cnc5[nH]ccc5c4)c3)CC2)=C(c2ccc(Cl)cc2)C1 [Venetoclax] + C[C@@H](Nc1cc(F)cc(F)c1)c1cc(C(=O)N(C)C)cc2c(=O)cc(N3CCOCC3)oc12 [AZD8186] (first compound max 1 µM, 7x7, partner max 3 µM)", "combination Emax": 0.0849}
{"compound": "C[C@@H]1COCCN1c1cc(C2([S@](C)(=N)=O)CC2)nc(-c2ccnc3[nH]ccc23)n1 [AZD6738] + O=C(c1cc(Cc2n[nH]c(=O)c3ccccc23)ccc1F)N1CCN(C(=O)C2CC2)CC1 [Olaparib] (first compound max 10 µM, 7x7, partner max 10 µM)", "combination Emax": 0.982}
{"compound": "Cc1c2c(nn1C)CSCc1cc(n(C)n1)CSc1cc(c3ccccc3c1)OCCCc1c(C(=O)O)n(C)c3c-2c(Cl)ccc13 [AZD5991] + C=CCn1c(=O)c2cnc(Nc3ccc(N4CCN(C)CC4)cc3)nc2n1-c1cccc(C(C)(C)O)n1 [AZD1775] (first compound max 1 µM, partner max 1 µM)", "combination Emax": 0.921}
{"compound": "CN(CCO)CC[C@H](CSc1ccccc1)Nc1ccc(S(=O)(=O)NC(=O)c2ccc(N3CCC([C@@H](O)c4ccccc4-c4ccc(Cl)cc4)CC3)cc2)cc1S(=O)(=O)C(F)(F)F [AZD4320] + C1CN(CCC1(C(=O)N[C@@H](CCO)C2=CC=C(C=C2)Cl)N)C3=NC=NC4=C3C=CN4 [Capivasertib] (first compound max 1 µM, 7x7, partner max 3 µM)", "combination Emax": 0.984}
{"compound": "NC1(C(=O)N[C@@H](CCO)c2ccc(Cl)cc2)CCN(c2ncnc3[nH]ccc23)CC1 [Capivasertib] + COc1nnc2ccc(N3CCC(c4ccc(OCCN5CCN(C)C(=O)[C@H]5C)cc4)CC3)nn12 [AZD5153] (first compound max 10 µM, 7x7, partner max 1 µM)", "combination Emax": 1}

**Q:** Which combination Emax is listed for Cc1cc2ncnn2cc1Nc1ncc2c(n1)n(C1CCOCC1)c(=O)n2C [AZD7648] + CN(C)CCCOc1ccc(-c2ccc3ncc4c(c3c2)n(C2CCOCC2)c(=O)n4C)cn1 [AZD0156] (first compound max 10 µM, 7x7, partner max 1 µM) ?
**A:** 0.173

====

System: HT-1197 (Bladder Carcinoma)
assay.details: Bliss excess, mean over the matrix (fraction); higher = more synergy
For each record, write down the corresponding Bliss excess.
One number for each entry.

Would you please look over these solved cases?
{"compound": "CC1(C)CCC(CN2CCN(c3ccc(C(=O)NS(=O)(=O)c4ccc(NCC5CCOCC5)c([N+](=O)[O-])c4)c(Oc4cnc5[nH]ccc5c4)c3)CC2)=C(c2ccc(Cl)cc2)C1 [Venetoclax] + CCN(CCO)CCCOc1ccc2c(Nc3cc(CC(=O)Nc4cccc(F)c4)[nH]n3)ncnc2c1 [AZD2811] (first compound max 1 µM, 7x7, partner max 1 µM)", "experimental.system": "HT-1197 (Bladder Carcinoma)", "Bliss excess": -0.0204}
{"compound": "NC1(C(=O)N[C@@H](CCO)c2ccc(Cl)cc2)CCN(c2ncnc3[nH]ccc23)CC1 [Capivasertib] + CC(=O)c1c(C)c2cnc(Nc3ccc(N4CCNCC4)cn3)nc2n(C2CCCC2)c1=O [Palbociclib] (first compound max 10 µM, 7x7, partner max 10 µM)", "experimental.system": "HT-1197 (Bladder Carcinoma)", "Bliss excess": 0.0024}
{"compound": "COc1nnc2ccc(N3CCC(c4ccc(OCCN5CCN(C)C(=O)[C@H]5C)cc4)CC3)nn12 [AZD5153] + C[C@@H]1COCCN1C2=NC(=NC(=C2)C3(CC3)[S@](=N)(=O)C)C4=C5C=CNC5=NC=C4 [AZD6738] (first compound max 1 µM, 7x7, partner max 10 µM)", "experimental.system": "HT-1197 (Bladder Carcinoma)", "Bliss excess": -0.0082}
{"compound": "Cc1c2c(nn1C)CSCc1cc(n(C)n1)CSc1cc(c3ccccc3c1)OCCCc1c(C(=O)O)n(C)c3c-2c(Cl)ccc13 [AZD5991] + C[C@@H]1COCCN1C2=NC(=NC(=C2)C3(CC3)[S@](=N)(=O)C)C4=C5C=CNC5=NC=C4 [AZD6738] (first compound max 1 µM, 7x7, partner max 10 µM)", "experimental.system": "HT-1197 (Bladder Carcinoma)", "Bliss excess": -0.104}
{"compound": "Cn1cnc2c(F)c(Nc3ccc(Br)cc3Cl)c(C(=O)NOCCO)cc21 [Selumetinib] + C[C@@H]1COCCN1C2=NC(=NC(=C2)C3(CC3)[S@](=N)(=O)C)C4=C5C=CNC5=NC=C4 [AZD6738] (first compound max 10 µM, 7x7, partner max 10 µM)", "experimental.system": "HT-1197 (Bladder Carcinoma)", "Bliss excess": 0.0196}

Hey, quick one: what's Bliss excess for each of these?
1. COc1nnc2ccc(N3CCC(c4ccc(OCCN5CCN(C)C(=O)[C@H]5C)cc4)CC3)nn12 [AZD5153] + Cn1cnc2c(F)c(Nc3ccc(Br)cc3Cl)c(C(=O)NOCCO)cc21 [Selumetinib] (first compound max 1 µM, 7x7, partner max 10 µM)
2. CN(CCO)CC[C@H](CSc1ccccc1)Nc1ccc(S(=O)(=O)NC(=O)c2ccc(N3CCC([C@@H](O)c4ccccc4-c4ccc(Cl)cc4)CC3)cc2)cc1S(=O)(=O)C(F)(F)F [AZD4320] + CCN(CCO)CCCOc1ccc2c(Nc3cc(CC(=O)Nc4cccc(F)c4)[nH]n3)ncnc2c1 [AZD2811] (first compound max 1 µM, 7x7, partner max 1 µM)

**A:**
1. 0.108
2. -0.016

====

For each record, write down the corresponding Bliss excess.
Tested on: SCC90 (Head and Neck Carcinoma)
assay.details: Bliss excess, mean over the matrix (fraction); higher = more synergy
Numbers only.

Would you please look over these solved cases?
{"compound": "CC1(C)CCC(CN2CCN(c3ccc(C(=O)NS(=O)(=O)c4ccc(NCC5CCOCC5)c([N+](=O)[O-])c4)c(Oc4cnc5[nH]ccc5c4)c3)CC2)=C(c2ccc(Cl)cc2)C1 [Venetoclax] + CCN(CCO)CCCOc1ccc2c(Nc3cc(CC(=O)Nc4cccc(F)c4)[nH]n3)ncnc2c1 [AZD2811] (first compound max 1 µM, 7x7, partner max 1 µM)", "experimental.system": "SCC90 (Head and Neck Carcinoma)", "Bliss excess": 0.169}
{"compound": "NC1(C(=O)N[C@@H](CCO)c2ccc(Cl)cc2)CCN(c2ncnc3[nH]ccc23)CC1 [Capivasertib] + CCN(CCO)CCCOc1ccc2c(Nc3cc(CC(=O)Nc4cccc(F)c4)[nH]n3)ncnc2c1 [AZD2811] (first compound max 10 µM, 7x7, partner max 1 µM)", "experimental.system": "SCC90 (Head and Neck Carcinoma)", "Bliss excess": 0.0332}

Please look at the following compound next.
**Q:** Which Bliss excess is listed for NC1(C(=O)N[C@@H](CCO)c2ccc(Cl)cc2)CCN(c2ncnc3[nH]ccc23)CC1 [Capivasertib] + CC(C)n1c(=O)n(C)c2cnc3cc(F)c(-c4ccc(OCCCN5CCCCC5)nc4)cc3c21 [AZD1390] (first compound max 10 µM, 7x7, partner max 0.3 µM) ?
**A:** -0.0484

====

Test system: NCI-H2452 (Mesothelioma)
assay.details: combination Emax (second highest fraction inhibited in the dose matrix, 72 h); higher = more inhibition; extreme values may be limits of the assay
quantity.measured: combination Emax
Give bare numbers.

Would you please look over these solved cases?
{"compound": "CN(CCO)CC[C@H](CSc1ccccc1)Nc1ccc(S(=O)(=O)NC(=O)c2ccc(N3CCC([C@@H](O)c4ccccc4-c4ccc(Cl)cc4)CC3)cc2)cc1S(=O)(=O)C(F)(F)F [AZD4320] + Nc1ccn([C@@H]2O[C@H](CO)[C@@H](O)C2(F)F)c(=O)n1 [Gemcitabine] (first compound max 1 µM, 7x7, partner max 0.3 µM)", "combination Emax": 0.355}
{"compound": "Cc1cc2ncnn2cc1Nc1ncc2c(n1)n(C1CCOCC1)c(=O)n2C [AZD7648] + C=CCn1c(=O)c2cnc(Nc3ccc(N4CCN(C)CC4)cc3)nc2n1-c1cccc(C(C)(C)O)n1 [AZD1775] (first compound max 10 µM, partner max 1 µM)", "combination Emax": 0.663}
{"compound": "Cc1cc2ncnn2cc1Nc1ncc2c(n1)n(C1CCOCC1)c(=O)n2C [AZD7648] + COc1cc([C@@H]2c3cc4c(cc3[C@@H](O[C@@H]3O[C@@H]5CO[C@@H](C)O[C@H]5[C@H](O)[C@H]3O)[C@H]3COC(=O)[C@H]23)OCO4)cc(OC)c1O [Etoposide] (first compound max 10 µM, 7x7, partner max 10 µM)", "combination Emax": 0.355}
{"compound": "CN(CCO)CC[C@H](CSc1ccccc1)Nc1ccc(S(=O)(=O)NC(=O)c2ccc(N3CCC([C@@H](O)c4ccccc4-c4ccc(Cl)cc4)CC3)cc2)cc1S(=O)(=O)C(F)(F)F [AZD4320] + C1CN(CCC1(C(=O)N[C@@H](CCO)C2=CC=C(C=C2)Cl)N)C3=NC=NC4=C3C=CN4 [Capivasertib] (first compound max 1 µM, 7x7, partner max 3 µM)", "combination Emax": 0.202}
{"compound": "Cn1cnc2c(F)c(Nc3ccc(Br)cc3Cl)c(C(=O)NOCCO)cc21 [Selumetinib] + CCN(CCO)CCCOc1ccc2c(Nc3cc(CC(=O)Nc4cccc(F)c4)[nH]n3)ncnc2c1 [AZD2811] (first compound max 10 µM, 7x7, partner max 1 µM)", "combination Emax": 0.249}

Hey, quick one: what's combination Emax for each of these?
1. COc1cccc(OCCCN)c1-c1cc(Nc2cnc(C#N)cn2)n[nH]1 [Prexasertib] + C[C@@H]1COCCN1C2=NC(=NC(=C2)C3(CC3)[S@](=N)(=O)C)C4=C5C=CNC5=NC=C4 [AZD6738] (first compound max 1 µM, 7x7, partner max 10 µM)
2. N#Cc1cnc(Nc2cc(NC[C@H]3CNCCO3)c(C(F)(F)F)cn2)cn1 [SRA737] + O=c1[nH]cc(F)c(=O)[nH]1 [5-Fluorouracil] (first compound max 10 µM, 7x7, partner max 20 µM)

**A:**
0.672
0.513
